Data credit: patent US7989188B2

Experiment: In-vitro toxicity profile, MTT cell viability
Assay type: cell-based
Conditions: human, HUVEC (human umbilical vein endothelial cells, normal), healthy cells (HUVEC), at the concentration of 5-FU that resulted in 90% mortality (IC90), FIG. 2
Procedure: Materials and Methods: Human umbilical vein endothelial cells (HUVEC, normal) cells were grown in M199 medium supplemented with 20% fetal calf serum (FCS), vitamins, 1 ng/ml hbFGF, and antibiotics at 370° C., 5% CO2. […] The cells were seeded in a 96-well ELISA dish at a concentration of 10,000-20,000 cells/well. […] The results were analyzed using Techan ELISA reader equipped with a 570 nm filter. […]

>  <Molecule>
NC(CC(=O)n1cc(F)c(=O)[nH]c1=O)C(=O)O (stereo not shown)

>  <mortality at 72 h / %>
20

$$$$
